Data provenance is patent US10308938B2.

# Tested on: CD4^+ T cells
# assay notes: Cytokine secretion by stimulated CD4+ T cells, ELISA
# Type: cell-based, human
# details: day 3 after stimulation
readout name: IFNγ secretion

{"columns": ["smiles notation", "test system", "value measured"],
 "data": [
  ["C=CCn1c(=O)n([C@@H]2O[C@H](CO)[C@@H](O)[C@H]2O)c2nc(N)[nH]c(=O)c21", "CD4^+ T cells", "inhibited"],
  ["CCCCNc1nc(N)c2[nH]c(=O)n(Cc3ccc(C(=O)NCC(=O)O)cc3)c2n1", "CD4^+ T cells", "inhibited"],
  ["CCNCc1nc2c(N)nc3ccccc3c2n1CC(C)(C)O", "CD4^+ T cells", "inhibited"]
]}
